test: Plasma escitalopram levels in Phase 1 study; format: in vivo, human; details: both sexes, human, plasma, oral, 10 mg/day, Cohort 3 (5-HTP 3 mg/kg, Ramped); after 10 mg/day oral; mean ± SEM
Result type: concentration at 7 day (ng/mL)
Only the number, expressed in ng/mL, is required.

Please give the measured concentration at 7 day for this molecule: CN(C)CCC[C@@]1(c2ccc(F)cc2)OCc2cc(C#N)ccc21 [Escitalopram, escitalopram]
17

---

experiment: Plasma 5-HTP pharmacokinetics of 24 h continuous IV 5-HTP infusion, Phase 1 study; type: in vivo, human; details: both sexes, human, plasma, iv, 1 mg/kg, Cohort 5, ramp rate 1 mg/kg/24 hr IV; healthy adults on escitalopram; mean, N=5
Result type: AUC(0-t)

Please give the measured AUC(0-t) for this molecule: N[C@@H](Cc1c[nH]c2ccc(O)cc12)C(=O)O [5-HTP, 5-hydroxytryptophan]
3240 ng·h/mL
